System: Wild type
protocol.summary: S. aureus survival, RN4220 and DeltatarO strains – OD600, teichoic acid synthesis inhibitors, primary screen (AID 463173)
cond: S. aureus RN4220 wild type/DeltatarO growth, OD600, 18 h, stronger effect = lower value, screened at 18.75 µg/mL (by protocol)
About 1,700 (3.3%) of roughly 52,000 compounds were called active. This is one part of a sample in which actives are shown more often than they occur.
observable: survival (%)
Give just the number in %; leave the unit off.

Solved entries:
compound=Cc1ccc(C)c(NC(=O)Cn2ncc3c([nH]c4ccccc43)c2=O)c1 observable=survival test_result=45
compound="CCCN1C(=O)CN(C2CCCCCC2)C(=O)C1c1ccc(OCC)c(OC)c1 (stereo not given)" observable=survival test_result=120
compound="COc1cccc(NC(=O)CC2C(=O)OCCN2Cc2ccccc2)c1 (stereo not given)" observable=survival test_result=161
compound="CCCOc1ccc(C2C(=O)N(C3CCCCCC3)CC(=O)N2CCC2=CCCCC2)cc1OC (stereo not given)" observable=survival test_result=123
compound=COc1cccc(CNC(=O)c2ccc3c(c2)c(C)c(C)n3Cc2ccccc2)c1 observable=survival test_result=72
compound="Cc1ccc(S(=O)(=O)N2Cc3ccccc3CC2C(=O)N(C)C)cc1 (stereo not given)" observable=survival test_result=102
compound="CCCOc1ccc(C2C(=O)N(C3CCCCCC3)CC(=O)N2CCC)cc1OC (stereo not given)" observable=survival test_result=-6
compound=Cc1ccc(Cl)cc1N1CCN(S(=O)(=O)c2ccc3c(c2)CC(=O)N3C)CC1 observable=survival test_result=113

Determine from records and report survival for COc1ccc(C2C(=O)N(C3CCC(C)CC3)CC(=O)N2C2CCCCC2)cc1OC (stereo not given) 64

Determine from records and report survival for Cc1ccc(CNC(=O)CN(C)S(=O)(=O)c2ccc3c(c2)c(=O)n(C)c(=O)n3C)cc1 84
